Reference source: patent US10947223B2

- Measured target: human recombinant BACE2 (Homo sapiens (Human))
- Sequence (Q9Y5Z0 63-518): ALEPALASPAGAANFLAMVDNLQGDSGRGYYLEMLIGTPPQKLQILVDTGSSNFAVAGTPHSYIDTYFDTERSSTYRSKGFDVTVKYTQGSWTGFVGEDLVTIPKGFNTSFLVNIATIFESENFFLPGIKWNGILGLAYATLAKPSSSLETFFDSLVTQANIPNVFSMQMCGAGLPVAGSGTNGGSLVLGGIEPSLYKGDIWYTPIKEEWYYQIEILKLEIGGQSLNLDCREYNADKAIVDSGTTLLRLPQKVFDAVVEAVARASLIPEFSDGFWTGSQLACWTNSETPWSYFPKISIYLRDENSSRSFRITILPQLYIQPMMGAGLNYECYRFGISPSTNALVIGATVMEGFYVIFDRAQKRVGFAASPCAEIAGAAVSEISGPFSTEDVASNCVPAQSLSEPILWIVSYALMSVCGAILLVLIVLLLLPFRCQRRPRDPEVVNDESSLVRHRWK
- Protocol text: In vitro enzymatic BACE2 FRET assay
- Setup conditions: pH 4.5, read-out: BACE2 Enzyme IC50
pIC50: −log10 of the molar value.
Experimental readout: pIC50

Known results for molecules:
According to the records, this molecule C[C@@]1(c2cc(/C=C(\F)c3ccc(Cl)cn3)ccc2F)CO[C@@](C)(C(F)(F)F)C(N)=N1 [Example 103] displays pIC50 of 7.77

Please fill in: pIC50 reported for NC1=N[C@@](c2cc(/C=C(\F)c3ccc(Br)cn3)ccc2F)(C(F)F)[C@H]2C[C@H]2O1 [Example 100] = 6.25

Summary for this molecule, NC1=N[C@@](c2cc(/C=C(\F)c3ccc(Cl)cn3)ccc2F)(C(F)F)[C@H]2C[C@H]2O1 [Example 101] : pIC50 is 6.38

Reported pIC50 ( C[C@@]1(c2cc(/C=C(\F)c3cnc(Cl)cn3)ccc2F)CO[C@@](C)(C(F)(F)F)C(N)=N1 [Example 108] ) = 7.48

Entry N#Cc1ccc(/C(F)=C/c2ccc(F)c([C@@]3(C(F)F)N=C(N)O[C@@H]4C[C@@H]43)c2)nc1 [Example 102] — recorded pIC50 = 5.79

Lab book: pIC50 of C[C@]1(c2cc(/C=C(\F)c3cnc(C#N)cn3)ccc2F)N=C(N)OC[C@@H]1OCC(F)(F)F [Example 112] noted as 5.20

1 = C[C@@]1(c2nc(/C=C(\F)c3ccc(C#N)cn3)ccc2F)CO[C@@](C)(C(F)(F)F)C(N)=N1 [Example 117]
2 = CC#CCOc1cnc(/C(F)=C/c2ccc(F)c([C@@]3(C)N=C(N)OC[C@@H]3OCC(F)(F)F)c2)cn1 [Example 113]
(Q) Between 1 and 2 , whose measured pIC50 reads higher? Answer with the label corresponding to your selection.
(A) 1
